The entries below come with measured pest or weed control at 140 g/ha values attached.
# System: test plant species
# protocolText: Post-emergent herbicidal activity test (greenhouse, foliar spray, visual growth reduction)
# Format: in vivo
# runParameters: post-emergence, 336 h, lambsquarters (Chenopodium album), 14 Days After Application, 140 g ai/ha, read-out: Visual Growth Reduction (%) CHEAL
valueKind: pest or weed control at 140 g/ha

smilesdata=O=C(O)c1nc(-c2ccc(C(F)(F)F)c(Cl)c2)ccc1Cl valueobserved="30 to 44%"
smilesdata=COC(=O)c1nc(-c2ccc(C(F)(F)F)c(Cl)c2)c(F)cc1Cl valueobserved="45 to 59%"
smilesdata=COC(=O)c1nc(-c2ccc3c(c2)C(F)(F)OC(F)(F)O3)c(F)cc1Cl valueobserved="0 to 29%"
smilesdata=COC(=O)c1nc(-c2ccc(N)cc2Cl)c(F)cc1Cl valueobserved="0 to 29%"
smilesdata=COC(=O)c1nc(-c2ccc(N)cc2)c(F)cc1Cl valueobserved="60 to 74%"
smilesdata=COC(=O)c1nc(-c2cccc(Cl)c2F)ccc1Cl valueobserved="0 to 29%"

----------
# System: test plant species
# protocolText: Post-emergent herbicidal activity test (greenhouse, foliar spray, visual growth reduction)
# Format: in vivo
# runParameters: post-emergence, 336 h, IPOHE: ivy-leaf morning glory (Ipomoea hederacea), 140 g ai/ha, 14 days after application, read-out: Visual Growth Reduction (%) 14 Days After Application, IPOHE
The entries below come with measured pest or weed control at 140 g/ha values attached.
valueKind: pest or weed control at 140 g/ha

molecule="COC(=O)c1nc(-c2ccc(C(F)(F)F)cc2C(N)=O)c(Cl)cc1Cl [F147]" valuekind="pest or weed control at 140 g/ha" valueobserved="30 to 44%"
molecule="C=Cc1cc(C(F)(F)F)cc(Cl)c1-c1ccc(Cl)c(C(=O)O)n1 [F222]" valuekind="pest or weed control at 140 g/ha" valueobserved="95 to 100%"
molecule="COC(=O)c1nc(-c2ccc(C(F)(F)F)cc2Cl)c(F)c(Cl)c1Cl [F43]" valuekind="pest or weed control at 140 g/ha" valueobserved="0 to 29%"
molecule="O=C(O)c1nc(-c2ccc(SC(F)(F)F)cc2)c(Cl)cc1Cl [F89]" valuekind="pest or weed control at 140 g/ha" valueobserved="0 to 29%"
molecule="COC(=O)c1nc(-c2ccc(C(F)(F)F)c(OC)c2)ccc1Cl [F296]" valuekind="pest or weed control at 140 g/ha" valueobserved="45 to 59%"

----------
# Test system: test plant species
# protocolText: Post-emergent herbicidal activity test (greenhouse, foliar spray, visual growth reduction)
# Assay type: in vivo
# runParameters: post-emergence, 336 h, IPOHE: ivy-leaf morning glory (Ipomoea hederacea), 140 g ai/ha, 14 days after application, read-out: Visual Growth Reduction (%) 14 Days After Application, IPOHE
valueKind: pest or weed control at 140 g/ha

smilesdata=COC(=O)c1nc(-c2cc(F)c3c(c2)OC(F)(F)O3)ccc1Cl valueobserved="95 to 100%"
smilesdata=COC(=O)c1nc(-c2ccc3c(c2C)OC(F)(F)O3)c(F)cc1Cl valueobserved="95 to 100%"
smilesdata=COC(=O)c1nc(-c2ccc3c(c2)OC(F)(F)O3)c(F)cc1Cl valueobserved="95 to 100%"
smilesdata=COC(=O)c1nc(-c2cc(Cl)cnc2OC)ccc1Cl valueobserved="0 to 29%"
smilesdata=O=C(O)c1nc(-c2ccc3occc3c2)c(F)cc1Cl valueobserved="60 to 74%"
smilesdata=O=C(O)c1nc(-c2ccc(SC(F)(F)F)cc2Cl)c(F)cc1Cl valueobserved="95 to 100%"
smilesdata=COC(=O)c1nc(-c2c(C=O)cc(OC)c(O)c2Cl)ccc1Cl valueobserved="0 to 29%"
smilesdata=O=C(O)c1nc(-c2nc(Cl)c(C(F)(F)F)cc2Cl)ccc1Cl valueobserved="95 to 100%"
smilesdata=COC(=O)c1nc(-c2ccc(C(F)(F)F)cc2Cl)cc(C)c1Cl valueobserved="85 to 94%"
smilesdata=COC(=O)c1nc(-c2c(Cl)cc(C(F)(F)F)cc2I)ccc1Cl valueobserved="95 to 100%"
